The reported measurements were obtained from patent US10100030B2.

molecular target: CYP3A4 (Homo sapiens (Human), UniProt P08684)
Sequence (P08684 whole entry): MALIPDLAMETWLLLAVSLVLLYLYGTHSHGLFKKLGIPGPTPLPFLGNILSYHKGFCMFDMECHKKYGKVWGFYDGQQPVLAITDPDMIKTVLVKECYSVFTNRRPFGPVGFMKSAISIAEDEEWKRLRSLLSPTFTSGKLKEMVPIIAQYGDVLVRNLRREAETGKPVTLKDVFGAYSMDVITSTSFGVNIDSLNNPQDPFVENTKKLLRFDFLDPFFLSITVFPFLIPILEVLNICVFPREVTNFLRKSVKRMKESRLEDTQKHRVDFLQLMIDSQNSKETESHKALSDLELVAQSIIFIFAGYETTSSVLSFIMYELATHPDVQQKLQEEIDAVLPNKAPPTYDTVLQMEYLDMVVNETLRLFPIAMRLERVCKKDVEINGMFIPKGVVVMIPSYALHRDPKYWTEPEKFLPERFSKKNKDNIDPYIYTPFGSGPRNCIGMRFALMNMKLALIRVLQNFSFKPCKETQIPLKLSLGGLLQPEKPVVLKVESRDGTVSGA
resultType: IC50 (µM)
# output: bare number, implied unit µM

q: What does the record list as IC50 for `Cc1cc(F)ccc1-c1cc(N2CCC([C@@H](C)C(=O)O)CC2)ncc1N(C)C(=O)C(C)(C)c1cc(C(F)(F)F)cc(C(F)(F)F)c1` ?
a: 4.6

---

target: CYP3A4 (Homo sapiens (Human)); assay: Inhibitory effect on CYP3A4 (Luciferin-IPA)
resultType: pIC50
A value of pIC50 is the negative decimal logarithm of a concentration given in moles per litre.

q: What does the record list as pIC50 for Cc1cc(F)ccc1-c1cc(N2CCC([C@H](C)C(=O)O)CC2)ncc1N(C)C(=O)C(C)(C)c1cc(C(F)(F)F)cc(C(F)(F)F)c1 [Example 11] ?
a: 5.31

---

target: CYP3A4 (Homo sapiens (Human)); conditions: human, 10 min, pH 7.4
resultType: pIC50
A value of pIC50 is the negative decimal logarithm of a concentration given in moles per litre.

q: Under CYP3A4 (Homo sapiens (Human)): pIC50 value of Cc1cc(F)ccc1-c1cc(N2CCC(C(C)C(=O)O)CC2)nc(C#N)c1N(C)C(=O)C(C)(C)c1cc(C(F)(F)F)cc(C(F)(F)F)c1 (stereo not shown) [Example 8] ?
a: 5.85

---

test: Measurement of drug concentrations in the brain after foot-tapping test; assay type: in vivo; conditions: male; 0.3 mg/kg iv, after foot-tapping was finished, gerbil brain; read-out: Conc. (drug concentration in the brain)
concentration at 4 h vs 200 nM: at or above is yes (1), below is no (0).

Cc1ccccc1-c1cc(N2CCC(CC(=O)O)CC2)ncc1N(C)C(=O)C(C)(C)c1cc(C(F)(F)F)cc(C(F)(F)F)c1: no (0)
Cc1cc(F)ccc1-c1cc(N2CCC(C)(CC(=O)O)CC2)nc(C#N)c1N(C)C(=O)C(C)(C)c1cc(C(F)(F)F)cc(C(F)(F)F)c1: yes (1)
Cc1cc(F)ccc1-c1cc(N2CCC(CC(=O)O)CC2)ncc1N(C)C(=O)C(C)(C)c1cc(C(F)(F)F)cc(C(F)(F)F)c1: yes (1)
Cc1cc(F)ccc1-c1cc(N2CCC(C(C)C(=O)O)CC2)nc(C#N)c1N(C)C(=O)C(C)(C)c1cc(C(F)(F)F)cc(C(F)(F)F)c1 (centres unmarked): yes (1)
COC1CN(c2cc(-c3ccc(F)cc3C)c(N(C)C(=O)C(C)(C)c3cc(C(F)(F)F)cc(C(F)(F)F)c3)cn2)CCC1CC(=O)O (centres unmarked): no (0)
Cc1cc(F)ccc1-c1cc(N2CCC(CC(=O)O)CC2)nc(C#N)c1N(C)C(=O)C(C)(C)c1cc(C(F)(F)F)cc(C(F)(F)F)c1: yes (1)

q: Decide: is the reported value of concentration at 4 h for Cc1cc(F)ccc1-c1cc(N2CCC(CC(=O)O)C(C)C2)ncc1N(C)C(=O)C(C)(C)c1cc(C(F)(F)F)cc(C(F)(F)F)c1 (centres unmarked) equal to or greater than 200 nM?
a: no (0)

q: One more compound: Cc1cc(F)ccc1-c1cc(N2CCC(CC(=O)O)C(C)(C)C2)ncc1N(C)C(=O)C(C)(C)c1cc(C(F)(F)F)cc(C(F)(F)F)c1 (centres unmarked)
a: yes (1)
